All values here come from the supplement of paper PMC11061612.

Readings of combination Emax for the listed compounds
# Tested on: K-562 (Chronic Myelogenous Leukemia)
# protocolDescription: combination Emax (second highest fraction inhibited in the dose matrix, 72 h); higher = more inhibition; extreme values may be limits of the assay
Form rule: numeric answer, no unit written next to it.

CC1(C)CCC(CN2CCN(c3ccc(C(=O)NS(=O)(=O)c4ccc(NCC5CCOCC5)c([N+](=O)[O-])c4)c(Oc4cnc5[nH]ccc5c4)c3)CC2)=C(c2ccc(Cl)cc2)C1 [Venetoclax] + COc1cc(Nc2ncc3c(n2)-c2ccc(Cl)cc2C(c2c(F)cccc2OC)=NC3)ccc1C(=O)O [Alisertib] (first compound max 1 µM, 7x7, partner max 10 µM) ... 0.693
Cc1c2c(nn1C)CSCc1cc(n(C)n1)CSc1cc(c3ccccc3c1)OCCCc1c(C(=O)O)n(C)c3c-2c(Cl)ccc13 [AZD5991] + Cn1cnc2c(F)c(Nc3ccc(Br)cc3Cl)c(C(=O)NOCCO)cc21 [Selumetinib] (first compound max 1 µM, 7x7, partner max 3 µM) ... 0.416

What combination Emax value was documented for this compound, Cn1cnc2c(F)c(Nc3ccc(Br)cc3Cl)c(C(=O)NOCCO)cc21 [Selumetinib] + CCN(CCO)CCCOc1ccc2c(Nc3cc(CC(=O)Nc4cccc(F)c4)[nH]n3)ncnc2c1 [AZD2811] (first compound max 10 µM, 7x7, partner max 1 µM) ?
0.32
